# assay: Initial plasma concentration in male ICR mouse at 5 mg/kg, iv measured for 0.083 to 24 hrs by LC-MS/MS analysis
# Format: ADME, organism-based
# assay.context: time 0.083-24 hrs
measured.attribute: C0

Query: Dear colleague, I am looking for the recorded C0 of the following molecule: O=C(NCc1cc(F)ccc1F)c1c[nH]c(-c2ccc(OC(F)F)c(OCC3CC3)c2)n1
Result: 7320 ng/mL

---

# assay: Tmax in male ICR mouse at 10 mg/kg, po measured for 0.25 to 24 hrs by LC-MS/MS analysis
# Format: ADME, organism-based
# assay.context: in vivo, time 0.25-24 hrs
measured.attribute: Tmax
Report the figure along with its unit, number first.

Query: Dear colleague, I am looking for the recorded Tmax of the following compound: O=C(NCc1cc(F)ccc1F)c1c[nH]c(-c2ccc(OC(F)F)c(OCC3CC3)c2)n1
Result: 1 h

---

# Test system: HaCaT
# assay: Anti-inflammatory activity in human HaCaT cells assessed as inhibition of M5-induced TNF-alpha production incubated for 24 hrs by ELISA
# Type: functional, cell-based
# reported pIC50; entries follow
pIC50 here: minus log base 10 of the concentration, concentration in moles per litre.

{"smiles.repr": "O=C(NCc1ncccn1)c1c[nH]c(-c2ccc(OC(F)F)c(OCC3CC3)c2)n1", "pIC50": 4.72}

Query: Form entry - test system: HaCaT; read-out: pIC50; molecule: O=C(NCc1cc(F)ccc1F)c1c[nH]c(-c2ccc(OC(F)F)c(OCC3CC3)c2)n1
Result: 4.64

---

# assay: Cmax in male ICR mouse at 10 mg/kg, po measured for 0.25 to 24 hrs by LC-MS/MS analysis
# Assay type: ADME, organism-based
# assay.context: in vivo, time 0.25-24 hrs
measured.attribute: Cmax
Report the figure along with its unit, number first.

Query: Dear colleague, I am looking for the recorded Cmax of the following compound: O=C(NCc1cc(F)ccc1F)c1c[nH]c(-c2ccc(OC(F)F)c(OCC3CC3)c2)n1
Result: 0.81 µg/mL

---

# reported IC50; entries follow
# System: RAW264.7
# assay: Anti-inflammatory activity in mouse RAW264.7 cells assessed as inhibition of LPS-induced TNF-alpha production incubated for 24 hrs by ELISA
# Assay type: functional, cell-based
# assay.context: RAW264.7, 24 h
Your answer is read as µM, so omit the unit and give the number.

Query: Dear colleague, I am looking for the recorded IC50 of the following compound: O=C(NCc1ncccn1)c1c[nH]c(-c2ccc(OC(F)F)c(OCC3CC3)c2)n1
Result: 27.3

Query: Dear colleague, I am looking for the recorded IC50 of the following compound: O=C(NCc1cc(F)ccc1F)c1c[nH]c(-c2ccc(OC(F)F)c(OCC3CC3)c2)n1
Result: 21.4

Query: Dear colleague, I am looking for the recorded IC50 of the following compound: O=C(Nc1nccs1)c1c[nH]c(-c2ccc(OC(F)F)c(OCC3CC3)c2)n1
Result: 59.9

---

# assay: Clearance in male ICR mouse at 5 mg/kg, iv measured for 0.083 to 24 hrs by LC-MS/MS analysis
# Type: ADME, organism-based
# assay.context: in vivo, time 0.083-24 hrs
measured.attribute: clearance (mL/min/kg)
Your answer is read as mL/min/kg, so omit the unit and give the number.

Query: Dear colleague, I am looking for the recorded clearance of the following molecule: O=C(NCc1cc(F)ccc1F)c1c[nH]c(-c2ccc(OC(F)F)c(OCC3CC3)c2)n1
Result: 16.6
